# System: HOP-92 NSCLC
# runDescription: NCI-60 one-dose screen, 48 h
# assayConditions: 10 µM unless noted
About 83,000 compounds went through this panel and 20% of them were active in at least one assay; those are over-represented in the sample as a whole. The source made the active and inactive calls. Rule for the calls: active = growth percent below 10; inactive = the rest.
Possible outcomes: active, inactive

| molecule | groupLabel |
| --- | --- |
| CC1CN=C(c2cccc(-c3ccc(-c4ccccc4)o3)c2)N1 (stereo not drawn) | active |
| N#CC(C#N)N=Nc1ccc(Cl)cc1Cl | active |
| COC(=O)C1=C(C)NC(C)=C(C(=O)OCC(C)C)C1c1ccccc1[N+](=O)[O-] (stereo not drawn) | inactive |
| C=C(CN1CC=CCC1)[C@@H]1CC[C@]2(CO)CC[C@]3(C)[C@H](CC[C@@H]4[C@@]5(C)CC[C@H](O)C(C)(C)[C@@H]5CC[C@]43C)[C@@H]12 | inactive |
| COc1ccc2cc(-c3ccc(-c4ccc(C(=N)N)s4)s3)ccc2c1 | inactive |
| COC(=O)/C=C1/SC(=Nc2cccc(Cl)c2)N(CCc2c[nH]c3ccc(O)cc23)C1=O | inactive |
| COc1ccc(-c2nnc(SCC(=O)Nc3ccc(/C(C)=N\O)cc3)n2-c2ccccc2)cc1OC | active |
| CCCCCCCCn1ccc2cc(NC(=O)Cn3cc(CN4CCCCCC4)nn3)ccc21 | inactive |
| CCCCCCCCCCCCCCCCCCOc1ccccc1CC(=O)OCC[N+]1(C)CCOCC1 | inactive |
| Cc1cccc(-n2c(C)nc3ccc(N4CCCNC4=O)cc3c2=O)c1 | inactive |
| C=C1C(=O)O[C@H]2[C@H]1CC/C(COC(=O)NCCCCCCCCNC(=O)OC/C1=C/CC[C@@]3(C)O[C@H]3[C@H]3OC(=O)C(=C)[C@@H]3CC1)=C\CC[C@@]1(C)O[C@@H]21 | active |
| O=C(CCCCCCCCC(=O)N/N=C\c1cc(Cl)ccc1O)N/N=C\c1cc(Cl)ccc1O | inactive |
| Oc1c(CN2CCCC2)cc(COCc2ccccc2)c2cccnc12 | inactive |
| COc1cc2nc(Nc3cccc(F)c3)nc(Nc3cc(C)[nH]n3)c2cc1OC | active |
| CCOC(=O)C1=C(C)N=C2SC=C(c3ccccc3)N2[C@H]1c1cn[nH]c1-c1ccc(Cl)cc1 | active |
| CC1=C(C(=O)n2c3ccccc3c3ccccc32)C(c2cccc([N+](=O)[O-])c2)C(C(=O)n2c3ccccc3c3ccccc32)=C(C)N1 | inactive |
| COc1cc(Nc2c3ccc(Cl)cc3nc3ccc(OC)cc23)c2ncccc2c1 | active |
| CN1CCN(Cc2ccc(NC(=O)c3cncc(C#Cc4cncc5[nH]ncc45)c3)cc2C(F)(F)F)CC1 | active |
| COc1ccc(C2=CN3CC=CCC3CC2=O)cc1 (stereo not drawn) | inactive |
| CN1CCN(C(=O)c2cc(-c3ccc4ncnc(N5CCc6cc(F)c(Cl)cc65)c4c3)cnc2N)CC1 | active |
| N=C(N)SCc1cccc2c(CSC(=N)N)cccc12 | inactive |
| COc1cc(-c2nc3occn3c2-c2ccnc(NCCCNS(=O)(=O)c3ccccc3)n2)ccc1F | inactive |
| CCC(CC)(N(CC(=O)O)CC(=O)O)C(CC)(CC)N(CC(=O)O)CC(=O)O | inactive |
| COC1=CC(c2ccc[nH]2)=N/C1=C\c1[nH]c(C)c(CC(=O)OCc2ccccc2)c1C | active |
| COc1ccc2c(c1)c(-c1nc(-c3cn(C)c4ncccc34)cs1)cn2CCO | inactive |
| CCn1cc(C(=O)N/N=C/c2ccc(Br)cc2)c(=O)c2cc(F)c(N3CCNC(C)C3)c(F)c21 (stereo not drawn) | inactive |
| Cc1ncc(C(=O)Nc2ccc(CN3CCN(C)CC3)c(C(F)(F)F)c2)cc1C#Cc1cnc(N)c2ccncc12 | active |
| Nc1ncnc2c1c(-c1ccc(Oc3ccccc3)cc1)nn2CC1SSCC1O (stereo not drawn) | active |
| CCc1cccc(Sc2cc(C(=O)N3Cc4ccc(OCCN(C)C)cc4C3)ccc2O)c1 | inactive |
| O=C(CN1C(=O)/C(=C/c2ccco2)SC1=S)NCCc1c[nH]c2ccc(F)cc12 | inactive |
| Cc1ccc(C)c2c1C(O)(C#Cc1ccccc1)c1ccccc1C2(O)C#Cc1ccccc1 (stereo not drawn) | active |
| O=C1Nc2ccc(F)cc2/C1=C\c1nc(-c2ccccc2F)n2ccccc12 | inactive |
| Cc1ccc(O)c(NC(=O)c2ccc(CNc3ccnc(C(F)(F)F)c3)cc2)c1 | inactive |
| COc1ccc(Cc2nnc(Nc3nc4ccccc4s3)s2)cc1 | inactive |
| CCCCCn1sc(=O)n(Cc2ccc(CNC(=O)OCc3ccc4c(Cl)cc(Cl)c(O)c4n3)cc2)c1=O | inactive |
| COC(=O)Cc1nc(C#N)c(N(C)C)o1 | inactive |
| CCCCCCCC/C=C\CCCCCCCCOc1ccc(CC(=O)NCC[N+](C)(C)C)cc1 | inactive |
| CCN=C1C=CC(=C(c2ccc(N(C)C)cc2)c2ccc(N(C)C)cc2)c2ccccc21 | active |
